Tested on: Plasmodium berghei
Assay: Screen against P. berghei liver stage (PbLuc), transformed with Luciferase, at 2uM
Assay type: functional, HepG2
Conditions: tested at 2 uM
Hit rate of the full screen: of about 68,000 compounds, about 2,700 (4%) showed an effect of 50% or more. The entries come from a sample that favours strong results as a whole.
readout_type: INHIBITION (%)

compound: O=C1C(NS(=O)(=O)c2ccc(F)cc2)CCN1Cc1ccccc1 (stereo unspecified)
target_under_test: Plasmodium berghei
observed_result: 38.76
//
compound: O=C(c1ccc2nncn2c1)N1CCCCC1Cn1cccn1 (stereo unspecified)
target_under_test: Plasmodium berghei
observed_result: 39.47
//
compound: Cc1ncsc1-c1nc(Cc2cccs2)nn1C1CCN(C)CC1
target_under_test: Plasmodium berghei
observed_result: 43.44
//
compound: CCc1noc(C)c1-c1nc(Cc2cccs2)nn1C1CCN(C)CC1
target_under_test: Plasmodium berghei
observed_result: 64.9
//
compound: O=C1C(NS(=O)(=O)c2cc(F)cc(F)c2)CCN1Cc1ccccc1 (stereo unspecified)
target_under_test: Plasmodium berghei
observed_result: 23.92
//
compound: CN1CCC(n2nc(Cc3cccs3)nc2-c2ccncc2)CC1
target_under_test: Plasmodium berghei
observed_result: 21.97

----------
Tested on: Plasmodium berghei
Test: Screen against P. berghei liver stage (PbLuc), transformed with Luciferase, at 2uM
Assay type: functional, HepG2
Conditions: tested at 2 uM
Screen size: about 68,000 compounds; about 2,700 (4%) showed an effect of 50% or more. Many of the other results were omitted from the sample, so strong results are more common in it than they were.
readout_type: INHIBITION (%)

compound: CCNC(=O)c1ncn2c1CN(C)S(=O)(=O)c1ccccc1-2
readout_type: INHIBITION
unit_descriptor: %
observed_result: -64.43
--
compound: CCOCCN1CCN(Cc2cccc(C(=O)N(C)C)c2)CC1C (stereo not drawn)
readout_type: INHIBITION
unit_descriptor: %
observed_result: 30.29
--
compound: CCOCCN1CCN(Cc2cccc(C(=O)N(C)C)c2)CC1CC (stereo not drawn)
readout_type: INHIBITION
unit_descriptor: %
observed_result: 50.05
--
compound: COc1ccc(OCCCNCCn2cccn2)cc1
readout_type: INHIBITION
unit_descriptor: %
observed_result: 31
--
compound: CCn1cc(NC(=O)NCC(C)N(C)C)cn1 (stereo not drawn)
readout_type: INHIBITION
unit_descriptor: %
observed_result: -3.58
--
compound: Cc1nccc(-c2ccccc2)c1C(=O)N1CC[C@](C)(O)C(C)(C)C1
readout_type: INHIBITION
unit_descriptor: %
observed_result: 48.93
--
compound: O=C(NC[C@H]1Cn2c(-c3ccccc3)cnc2CO1)C1CC1
readout_type: INHIBITION
unit_descriptor: %
observed_result: 35.6
--
compound: CN(Cc1cnn(C)c1)C(=O)C(c1ccccc1)N1CCSCC1 (stereo not drawn)
readout_type: INHIBITION
unit_descriptor: %
observed_result: 0.21
--
compound: O=C(NCCNc1cnccn1)c1scnc1Cl
readout_type: INHIBITION
unit_descriptor: %
observed_result: -6.71
--
compound: Cc1cc(C)n(C2CCCN(C(=O)Cc3cccc(F)c3)C2)n1 (stereo not drawn)
readout_type: INHIBITION
unit_descriptor: %
observed_result: 14.06
--
compound: CC(=O)N1CCC(CCNC(C)c2cc(F)cc(F)c2)CC1 (stereo not drawn)
readout_type: INHIBITION
unit_descriptor: %
observed_result: 14.63
--
compound: Cc1cc(C(=O)NCC2COCc3c(C)nnn3C2)no1 (stereo not drawn)
readout_type: INHIBITION
unit_descriptor: %
observed_result: 14.39
--
compound: Cc1ccccc1CN(C)C(=O)CN1CCOC(Cn2cncn2)C1 (stereo not drawn)
readout_type: INHIBITION
unit_descriptor: %
observed_result: 2.07
--
compound: C1CC(N2C[C@@H]3COC[C@]3(COCC3CCOCC3)C2)C1
readout_type: INHIBITION
unit_descriptor: %
observed_result: 22.96
--
compound: O=C(c1ccco1)N1CCC2(CCC(=O)N2Cc2cccc(F)c2)CC1
readout_type: INHIBITION
unit_descriptor: %
observed_result: 33.16
--
compound: CC(NC(=O)COc1cccc[n+]1[O-])C1CC1 (stereo not drawn)
readout_type: INHIBITION
unit_descriptor: %
observed_result: 25.69
--
compound: COC(=O)N1CCCN(C(=O)c2cccc3cccnc23)CC1
readout_type: INHIBITION
unit_descriptor: %
observed_result: 5.72
--
compound: CN(Cc1ccco1)[C@@H]1CN(C(=O)c2ccnnc2)[C@@H]2CCCO[C@H]12
readout_type: INHIBITION
unit_descriptor: %
observed_result: 7.08
--
compound: CCOCCN1CCN(CC(=O)N2CCCC2)CC1CC (stereo not drawn)
readout_type: INHIBITION
unit_descriptor: %
observed_result: -9.17
--
compound: CCc1nc(-c2ccc(NC(=O)N3CCCC3)cc2)no1
readout_type: INHIBITION
unit_descriptor: %
observed_result: -75.24
--
compound: COCCC1(CNC(=O)NCC2CCCS2)CCCC1 (stereo not drawn)
readout_type: INHIBITION
unit_descriptor: %
observed_result: 55.39
--
compound: COCc1cc(N(C)Cc2cnccn2)nc(C(C)(C)C)n1
readout_type: INHIBITION
unit_descriptor: %
observed_result: 10.03
--
compound: CC(C)c1ocnc1C(=O)N1CCCC(c2ccn[nH]2)C1 (stereo not drawn)
readout_type: INHIBITION
unit_descriptor: %
observed_result: 70.81
--
compound: CN(C(=O)c1ncn2c1CN(C)S(=O)(=O)c1ccccc1-2)C1CC1
readout_type: INHIBITION
unit_descriptor: %
observed_result: 60
--
compound: COCCC1(CNC(=O)NCC2CCCN(C)C2)CCCC1 (stereo not drawn)
readout_type: INHIBITION
unit_descriptor: %
observed_result: -24.61
--
compound: CC(=O)N1CCC(CCNC(C)Cc2ccc(F)cc2)CC1 (stereo not drawn)
readout_type: INHIBITION
unit_descriptor: %
observed_result: 63.1
--
compound: CC(Nc1ccn(Cc2ccccn2)n1)C(=O)NC(C)(C)C (stereo not drawn)
readout_type: INHIBITION
unit_descriptor: %
observed_result: -48.1
--
compound: CC(C)NC(=O)c1nc(Cn2c(C(F)(F)F)nc3ccccc32)no1
readout_type: INHIBITION
unit_descriptor: %
observed_result: 37.53
--
compound: CCOCCN1CCN(Cc2cccc(C(=O)N(C)C)c2)CC1
readout_type: INHIBITION
unit_descriptor: %
observed_result: 10.62
--
compound: COc1ccc(CC(=O)N2CCCC(n3nc(C)cc3C)C2)cc1F (stereo not drawn)
readout_type: INHIBITION
unit_descriptor: %
observed_result: 6.3
--
compound: COCCC1(CNC(=O)NCC2CCC2)CCC1
readout_type: INHIBITION
unit_descriptor: %
observed_result: 29.43
--
compound: COc1ccccc1CNC(Cc1cccs1)c1nc(C)c(C)s1 (stereo not drawn)
readout_type: INHIBITION
unit_descriptor: %
observed_result: 46.15
--
compound: CC1CCN(C(=O)[C@@H]2C[C@@H]3CCN(Cc4nccs4)C[C@H]3O2)CC1
readout_type: INHIBITION
unit_descriptor: %
observed_result: 31.76
--
compound: O=S(=O)(CC1CC1)c1ncc(CN2CCOCC2)n1CC1CCCO1 (stereo not drawn)
readout_type: INHIBITION
unit_descriptor: %
observed_result: 3.49
--
compound: Cn1cnnc1S(=O)(=O)C1CCN(C(=O)c2ccco2)CC1
readout_type: INHIBITION
unit_descriptor: %
observed_result: 31.78
--
compound: CC(C)n1c(C2CCCN(CC(=O)NC(N)=O)C2)nc2ccccc21 (stereo not drawn)
readout_type: INHIBITION
unit_descriptor: %
observed_result: 0.31
--
compound: COCCn1cc(NC(=O)NCC(C)N2CCOCC2)cn1 (stereo not drawn)
readout_type: INHIBITION
unit_descriptor: %
observed_result: 20.77
--
compound: CN(C)C(=O)c1cccc(CN2CCN(CCO)CC2)c1
readout_type: INHIBITION
unit_descriptor: %
observed_result: 54.99
--
compound: Cc1nc(C2CCCNC2)cc(N2CCc3nc(N)sc3C2)n1 (stereo not drawn)
readout_type: INHIBITION
unit_descriptor: %
observed_result: 17.41
--
compound: Cc1ccc(CC(=O)N2CCCC(n3nc(C)cc3C)C2)cn1 (stereo not drawn)
readout_type: INHIBITION
unit_descriptor: %
observed_result: 5.59
--
compound: CCC(CC)C(CNC(=O)Nc1cnn(CCOC)c1)N(C)C (stereo not drawn)
readout_type: INHIBITION
unit_descriptor: %
observed_result: 66.11
--
compound: c1cnc(N2CCC3(CC2)CN(CC2CC2)c2ccccc23)nc1
readout_type: INHIBITION
unit_descriptor: %
observed_result: -59.24
--
compound: Cc1nc(C)n(C2CCCN(C(=O)c3ncoc3C(C)C)C2)n1 (stereo not drawn)
readout_type: INHIBITION
unit_descriptor: %
observed_result: -12.27
--
compound: c1cnc(NC[C@@H]2CCC[C@@H]3CN(Cc4csnn4)C[C@@H]32)nc1
readout_type: INHIBITION
unit_descriptor: %
observed_result: 55.7
--
compound: Cc1nn(C)c2c(N3CCN(C(=O)C(C)C)CC3)ncnc12
readout_type: INHIBITION
unit_descriptor: %
observed_result: 31.57
--
compound: COc1cccc(OCCc2nc3c(cc2C(N)=O)CCC3)c1
readout_type: INHIBITION
unit_descriptor: %
observed_result: 23.18
--
compound: CCC1CN(CC(=O)N2CCC2)CCN1CCOC (stereo not drawn)
readout_type: INHIBITION
unit_descriptor: %
observed_result: 24.15
--
compound: CCn1cc(NC(=O)c2cccc(OCC(F)(F)F)n2)cn1
readout_type: INHIBITION
unit_descriptor: %
observed_result: -44.13
